tested on: SF-539; assay: NCI tumour cell line growth inhibition, 48 h
Active and inactive are the calls of the source. No stated cut-off is given here; in the data, active = GI50 up to about 1.1 µM and inactive = higher.
GI50 values, listed per item
measurement-kind: GI50

                                   compound  system  measurement_kind       value_observed
0  Cc1cc(NS(=O)(=O)c2ccc(NC(=O)c3ccc(Cl)c4c(Nc5ccc(S(=O)(=O)Nc6cc(C)on6)cc5)c5ccccc5nc34)cc2)no1  SF-539              GI50   14.9 µM (inactive)
1  C[C@H](CCC(=O)O)[C@H]1CC[C@H]2[C@@H]3[C@H](O)C[C@@H]4C[C@H](O)CC[C@]4(C)[C@H]3CC[C@]12C  SF-539              GI50   24.7 µM (inactive)
2  CCCCC/C=C1\CCC(CN(C)C)C1=O (stereo not given)  SF-539              GI50   10.9 µM (inactive)
3     Cc1cc2c(C)nn(Cc3ccccc3)c2c(C(=O)O)c1C  SF-539              GI50  > 100 µM (inactive)
4  Cc1cc2c(cc1-c1cc3c(cc1C)C(C(C)C)=C(O)C(=O)/C3=C\Nc1c3ccccc3nc3ccccc13)/C(=C/Nc1c3ccccc3nc3ccccc13)C(=O)C(O)=C2C(C)C  SF-539              GI50   3.86 µM (inactive)
5  COc1ccc(/C=C/C(=O)c2c(-c3ccccc3)nn(C)c(=O)c2N2CCCCC2)cc1  SF-539              GI50   17.5 µM (inactive)
6  COc1ccc(N(C(=O)OC(C)(C)C)[C@@H]2C(C)=C[C@H]([S@@+]([O-])c3ccc(C)cc3)[C@@H]3C(=O)N(C)C(=O)[C@@H]32)cc1  SF-539              GI50   18.4 µM (inactive)
7        O=c1cc(N2CCOCC2)n2c(ccc3ccccc32)n1  SF-539              GI50  > 100 µM (inactive)
8  CC(C)(C)c1ccc2c(c1)CNCCNCCNCc1cc(C(C)(C)C)ccc1OCC1(CO2)COc2ccc(C(C)(C)C)cc2CNCCNCCNCc2cc(C(C)(C)C)ccc2OC1  SF-539              GI50    0.375 µM (active)
9  CC(C)c1ccc(/C=C(\NC(=O)c2ccccc2)c2nc3ccccc3[nH]2)cc1  SF-539              GI50   77.1 µM (inactive)

---

test system: UACC-257; experiment: NCI tumour cell line growth inhibition, 48 h
Activity calls are given as the source filed them. Rule as the data show it: active = GI50 up to about 1.1 µM and inactive = higher.
Labels: Yes (active), No (inactive)

molecule	assigned-label
CC1(C)CC(=O)c2c(nc3ccc4ccccc4c3c2-c2ccc(NC(=O)CCCCC(=O)Nc3ccc(-c4c5c(nc6ccc7ccccc7c46)CC(C)(C)CC5=O)cc3)cc2)C1	No
CCOC(=O)C(=O)Nc1ccccc1CC	No
COc1ccc2c(c1)CC1c3c(cc4c(c3-2)OCO4)CCN1C (stereo not given)	No
CC1(C)OC2C(O)C(CO)OC2(C(F)F)O1 (stereo not given)	No
Nc1c2c(=O)[nH]c(=O)c2c(N)c2c(=O)c3ccccc3c(=O)c12	No
COc1ccc(/C=N/n2cnc3[nH]c(C)c(Cc4ccccc4)c3c2=N)cc1	No
COC(=O)C(NC(=O)CNC(=O)CSc1nnc(COc2ccc(Cl)cc2)n1-c1ccccc1)C(C)C (stereo not given)	No
Cn1cc(C(=O)c2ccccc2)ccc1=O	No
Cc1cc2nc3c(C#N)c4c(c(Cl)n3c2cc1C)CCC4	No
CC(=O)c1c(O)c(C)c(O)c(Cc2c(O)c3c(c(C(=O)/C=C/c4ccccc4)c2O)OC(C)(C)C=C3)c1O [ROTTLERIN]	No
Cc1ccc(NC(=O)C(=O)C2C(=O)NC(=O)NC2=O)cc1C	No
O=C(/C=c1\oc(=O)/c(=C/C(=O)c2ccc(Cl)cc2)oc1=O)c1ccc(Cl)cc1	No
O=C(Nc1ccc(Cl)cc1C(=O)O)c1ccc([N+](=O)[O-])cc1	No
CN(C)CCCNC(=O)CCNC(=O)c1cc(NC(=O)c2cc(NC(=O)c3cc(NC(=O)c4nc(NC(=O)CCCNC(=O)c5cc(NC(=O)c6cc(NC(=O)c7cc(NC(=O)c8nccn8C)cn7C)cn6C)cn5C)cn4C)cn3C)cn2C)cn1C	No
S=C(NCCc1ccccn1)N/N=C(\c1ccccc1)c1ccccn1	Yes
Cc1cc2c(cc1-c1cc3c(cc1C)C(C(C)C)=C(O)C(=O)/C3=C\Nc1c3ccccc3nc3ccccc13)/C(=C/Nc1c3ccccc3nc3ccccc13)C(=O)C(O)=C2C(C)C	No
CCCC1=NC(C(F)(F)F)(C(F)(F)F)N=C(N2CCOCC2)O1	No
NS(=O)(=O)c1cccc(NC(=S)NC(=O)Nc2ccc(Cl)c(Cl)c2)c1	No
O=C(C#Cc1cn(C2CC(O)C(CO)O2)c(=O)[nH]c1=O)c1ccccc1 (stereo not given)	No
CC(C)OP(=O)(OC(C)C)c1ccc2c(c1)OCCOCCOCCOCCO2	No
O=C1CC23CC(=O)CC2(C1)c1ccccc1C3=O (stereo not given)	No
O=C(COc1ccc(Cl)cc1)N1N=C(c2ccc([N+](=O)[O-])o2)CC1(O)c1ccccc1 (stereo not given)	No
COC(=O)[C@@H](NC(=O)N(Cc1ccccc1)C[C@H](CC(C)C)NC(=O)[C@@H](NC(=O)OC(C)(C)C)C(C)C)C(C)C	No
Cc1cc(=O)oc2c(CNC(CC(C)C)C(=O)O)c(O)ccc12 (stereo not given)	No
O=C1CSC(c2c[nH]c3ccccc23)N1c1cccc([N+](=O)[O-])c1 (stereo not given)	No
CCCCOC(=O)NC(Nc1ccc(S(N)(=O)=O)cc1)(C(F)(F)F)C(F)(F)F	No
CC(=O)OC1[C@H]2c3cc4c(cc3CN3CCC(=C[C@@H]1O)C23)OCO4 (stereo not given in full)	No
O=C(OC1=CCN(Br)C1=O)C1=C(O)C(=O)N(Br)C1	No
c1ccc(C2C3=C(Nc4ncnn42)c2ccccc2C3)cc1 (stereo not given)	No
C=C1CC(c2ccc(O)c(OC)c2)Oc2c(OC)cccc21 (stereo not given)	No

---

tested on: CCRF-CEM; assay: NCI tumour cell line growth inhibition, 48 h
Active and inactive are the calls of the source. Rule as the data show it: active = GI50 up to about 1.1 µM and inactive = higher.
Labels: label 1 (active), label 0 (inactive)

compound	system	assigned-label
CCOC(=O)Nn1c(C)cc(C(=O)OC)c1C	CCRF-CEM	label 0
CCN1C(c2ccccc2)=CC(c2ccccc2)(C(Cl)(Cl)Cl)C=C1c1ccccc1	CCRF-CEM	label 0
CC(C)(CN1CCCCC1)C(/C=C/c1ccc(Cl)c(Cl)c1)=N\NC(=O)N/N=C(/C=C/c1ccc(Cl)c(Cl)c1)C(C)(C)CN1CCCCC1	CCRF-CEM	label 0
O=C1C(Br)=C(Br)C(=O)c2c(O)ccc(O)c21	CCRF-CEM	label 1
Nc1ncc(Cc2nc3ccccc3s2)s1	CCRF-CEM	label 0
Cc1ccc(Nc2nc(C)c(C(=O)CC(=O)C(=O)Nc3ccc(Cl)cc3)s2)cc1	CCRF-CEM	label 0
OCC1NC(COC2OC(CO)C(O)C(O)C2O)C(O)C(O)C1O (stereo unspecified)	CCRF-CEM	label 0
O=c1cccccc1O	CCRF-CEM	label 0
CCc1cccc(C)c1NC(=O)CC1Sc2ccccc2NC1=O (stereo unspecified)	CCRF-CEM	label 0
CCNC1=C(NC(=O)c2ccc(OC)cc2)C(=O)c2ccccc2C1=O	CCRF-CEM	label 0
Cc1ccc(C2NC(=O)c3ccccc3N2)s1 (stereo unspecified)	CCRF-CEM	label 0
Cc1cc2c(cc1-c1cc3c(cc1C)C(C(C)C)=C(O)C(=O)/C3=C\Nc1c3ccccc3nc3ccccc13)/C(=C/Nc1c3ccccc3nc3ccccc13)C(=O)C(O)=C2C(C)C	CCRF-CEM	label 0
C1CC2=C(C1)C1=S(S2)SC2=C1CCC2	CCRF-CEM	label 0
COc1ccc(OC)c2c1C=C[C@H](C1(C)SCCS1)C2C(C)=O (stereo partly specified)	CCRF-CEM	label 0
COc1cc2c3c(cc(Cl)nc3c1OC)C(O)(CC(C)=O)C(=O)N2 (stereo unspecified)	CCRF-CEM	label 0
CC(=O)Nc1ccc(C(=O)NN2C(=O)C(Cl)C2c2ccc(Cl)cc2)cc1 (stereo unspecified)	CCRF-CEM	label 0
C/C(=N\NC(=N)N)C(CN(C)C)C(c1ccccc1)c1c(O)c2ccccc2oc1=O (stereo unspecified)	CCRF-CEM	label 0
COc1cc(C2NCCC(c3ccccc3)(c3ccccc3)N2)cc(OC)c1OC (stereo unspecified)	CCRF-CEM	label 0
Cc1cc(C)nc(NC(=S)Nc2ccccc2Cl)c1	CCRF-CEM	label 0
C[N+](C)(C)CC(=O)N/N=C\c1c(O)ccc2ccccc12	CCRF-CEM	label 0
Oc1c(CN2CCOCC2)ccc2cccnc12	CCRF-CEM	label 0
CCC(C)C(NC(=O)C(CCCCN)NC(=O)C(NC(=O)C(CCC(N)=O)NC(=O)C(CCCNC(=N)N)NC(C)=O)C(C)CC)C(=O)NC(Cc1c[nH]c2ccccc12)C(=O)NC(Cc1ccccc1)C(=O)NC(CCC(N)=O)C(=O)NC(CC(N)=O)C(=O)NC(CCCNC(=N)N)C(=O)NC(CCCNC(=N)N)C(=O)NC(CCSC)C(=O)NC(CCCCN)C(=O)NC(Cc1c[nH]c2ccccc12)C(=O)NC(CCCCN)C(=O)NC(CCCCN)C(N)=O (stereo unspecified)	CCRF-CEM	label 0
CCCCCCCCCC/C=C/C=O	CCRF-CEM	label 0
CN(C)C=C1C(=O)c2c(Br)sc(Br)c2C1=O	CCRF-CEM	label 0
O=C1CSCc2sccc21	CCRF-CEM	label 0
CC(=O)N1OC(C)CC1Nc1ccc(Br)cc1 (stereo unspecified)	CCRF-CEM	label 1
Cc1cccc(C)c1NC(=O)CCCC(=O)C1/C(=N/NC(=O)CC#N)CCC/C1=N\NC(=O)CC#N (stereo unspecified)	CCRF-CEM	label 0
CCCCCCCC/C=C\CCCCCCC/C=C1/C[C@](/C=C/C(=O)OC)(CO)OC1=O	CCRF-CEM	label 1
C=CC[N+](CCO)(CCO)CCCCCCCCCCCCCCCCCC	CCRF-CEM	label 0
CC(C)(C)OC(=O)Cc1ccc2c(ccn2Cc2ccccc2)c1	CCRF-CEM	label 0
CCOC(=O)C1(Cc2ccccc2)Cc2cc3c(cc2C1)CCC3	CCRF-CEM	label 0
C=CC(=O)NC(=N)NC#N	CCRF-CEM	label 0
C[N+]1(C)C/C(=C\c2ccncc2)C(=O)/C(=C/c2ccncc2)C1	CCRF-CEM	label 0
O=C1C=C(Cl)C(=O)C(c2ccc(Cl)cc2)=C1	CCRF-CEM	label 0
COC[C@H](C)/N=C/N1CCc2ccccc2C1(Cc1ccccc1)Cc1ccccc1	CCRF-CEM	label 0
Cc1ccc(C2(c3ccc(F)cc3)OC(=O)c3ccccc32)c(O)c1 (stereo unspecified)	CCRF-CEM	label 0
